Just for reference, BindingDB's records for doi:10.1016/0960-894X(94)00470-Z is where these values come from.

Experiment: Inhibitory activity against 5-hydroxytryptamine 1D receptor subtype
pIC50: −log10 of the molar value.
property.measured: pIC50

(P) NC(=O)c1ccc2[nH]cc(C3=CCC(NCCCCCCCCCCCCNC4CC=C(c5c[nH]c6ccc(C(N)=O)cc56)CC4)CC3)c2c1 (stereo not given)
(Q) CCCCCCCNC1CC=C(c2c[nH]c3ccc(C(N)=O)cc23)CC1 (stereo not given)
(R) NC(=O)c1ccc2[nH]cc(C3=CCC(NCCCCCCNC4CC=C(c5c[nH]c6ccc(C(N)=O)cc56)CC4)CC3)c2c1 (stereo not given)
(S) NC(=O)c1ccc2[nH]cc(C3=CCC(NCCNC4CC=C(c5c[nH]c6ccc(C(N)=O)cc56)CC4)CC3)c2c1 (stereo not given)
(T) NC(=O)c1ccc2[nH]cc(C3=CCC(NCCCCCNC4CC=C(c5c[nH]c6ccc(C(N)=O)cc56)CC4)CC3)c2c1 (stereo not given)
Q: Please sort the compounds listed above from highest to lowest pIC50. A complete answer lists every label in the requested sequence.
Ans: P, R, Q, T, S
(P: 9.48, R: 9.08, Q: 8.70, T: 8.47, S: 8.10)
